- Test system: KRas Q61H mutant
- methodDescription: Ras GTP binding domain inhibition assay (Cy3-GTP/Cy5-GTP competition)
- Design: species or system human
- statedConditions: 20 μM; without SOS
attributeMeasured: KRas Q61H mutant: % inh.

compound: COCCNc1nc(-c2nccn2C)nc2sc(-c3ccccc3Cl)c(-c3ccc(OC)cc3)c12 [drawing 876]
observed: B (26-50% inhibition)

compound: COCCCNc1nc(-c2nccn2C)nc2sc(-c3ccn(C)n3)c(-c3ccc(OC)cc3)c12 [drawing 870]
observed: A (1-25% inhibition)

compound: COC1CCN(c2nc(-c3nccn3C)nc3sc(-c4ccnn4C)c(-c4ccccc4)c23)C1.Cl (stereo not drawn)
observed: B (26-50% inhibition)

compound: COCCNc1nc(-c2cn(C)cn2)nc2sc(-c3ccccc3Cl)c(-c3ccc(OC)cc3)c12 [drawing 873]
observed: B (26-50% inhibition)

compound: Oc1nc(-c2ncc3ccccn23)nc2c(-c3ccccn3)csc12 [drawing 834]
observed: C (51-75% inhibition)

compound: COc1ccc(-c2c(-c3cccc(OC)c3F)sc3nc(-c4nccn4C)nc(N4CCC(OC)C4)c23)cc1 (stereo not drawn) [drawing 806]
observed: C (51-75% inhibition)

compound: Cc1cnc(-c2nc(O)c3scc(-c4ccccn4)c3n2)n1C [drawing 808]
observed: A (1-25% inhibition)

Entry under test: COCCn1cc(Nc2nc(-c3ccccn3)nc(OC)c2OC)cn1 [drawing 793] . Its KRas Q61H mutant: % inh. was 0 (0% inhibition)

---

- Tested on: KRas Q61H mutant
- methodDescription: Ras GTP binding domain inhibition assay (Cy3-GTP/Cy5-GTP competition)
- Set-up: species or system human
- statedConditions: 20 μM; with SOS
attributeMeasured: KRas Q61H mutant + SOS: % inh.

compound: COCCNc1nc(-c2nccn2C)nc2sc(-c3cc(OC)ccc3Cl)c(-c3ccc(OC)cc3)c12 [drawing 877]
testedTarget: KRas Q61H mutant
attributeMeasured: KRas Q61H mutant + SOS: % inh.
observed: D (76-100% inhibition)
//
compound: COC1CCN(c2nc(-c3nccn3C)nc3sc(-c4ccnc(N(C)C)c4)c(-c4ccccc4)c23)C1.Cl (centres unmarked)
testedTarget: KRas Q61H mutant
attributeMeasured: KRas Q61H mutant + SOS: % inh.
observed: D (76-100% inhibition)

---

- testedTarget: KRas G12D mutant (Homo sapiens, UniProt P01116, G12D)
- Construct: fused on or other part: His tag, used for capture on nickel-coated plates
- methodDescription: Ras GTP binding domain inhibition assay (Cy3-GTP/Cy5-GTP competition)
- statedConditions: at 20 μM, without SOS; read-out: KRas G12D mutant: % inh.
attributeMeasured: inhibition at 20 µM

Looking up COc1c(O)nc(-c2ccccn2)nc1Oc1ccccc1 [drawing 948] , I found its inhibition at 20 µM recorded as 26 to 50%

inhibition at 20 µM measured on CN(C)CCOCCNc1nc(-c2nccn2C)nc2sc(-c3ccn(C)n3)c(-c3ccccc3)c12 [drawing 1042] = 26 to 50%

The reported inhibition at 20 µM of the compound COC1CCN(c2nc(-c3nccn3C)nc3sc(-c4ccnn4C)c(-c4ccccc4)c23)C1 (centres unmarked) [drawing 972] was 51 to 75%

inhibition at 20 µM reported for this compound COCCNC(=O)c1sc2nc(-c3nccn3C)nc(N[C@H]3C[C@@H](OC)C3)c2c1-c1ccccc1 [drawing 1056] : 51 to 75%

The recorded inhibition at 20 µM for entry Oc1nc(-c2ncc3n2CCCC3)nc2c(-c3ccccn3)csc12 [drawing 968] equals 51 to 75%

COCCN(C)C(=O)c1nc(-c2ccccn2)nc(O)c1O [drawing 945] has a reported inhibition at 20 µM of 1 to 25%

According to the records, this compound COCC(C)Nc1nc(-c2nccn2C)nc2sc(-c3ccccc3Cl)c(-c3cscn3)c12 (centres unmarked) [drawing 989] displays inhibition at 20 µM of 51 to 75%

Noted for COCCNC(=O)c1sc2nc(-c3nccn3C)nc(N[C@@H]3CC[C@H](OC)C3)c2c1-c1ccccc1 [drawing 1060] : its inhibition at 20 µM reads 76 to 100%
